Target: hNav1.7 (Homo sapiens (Human))
Sequence (Q15858 other isoform, or with tags, fused parts or gaps): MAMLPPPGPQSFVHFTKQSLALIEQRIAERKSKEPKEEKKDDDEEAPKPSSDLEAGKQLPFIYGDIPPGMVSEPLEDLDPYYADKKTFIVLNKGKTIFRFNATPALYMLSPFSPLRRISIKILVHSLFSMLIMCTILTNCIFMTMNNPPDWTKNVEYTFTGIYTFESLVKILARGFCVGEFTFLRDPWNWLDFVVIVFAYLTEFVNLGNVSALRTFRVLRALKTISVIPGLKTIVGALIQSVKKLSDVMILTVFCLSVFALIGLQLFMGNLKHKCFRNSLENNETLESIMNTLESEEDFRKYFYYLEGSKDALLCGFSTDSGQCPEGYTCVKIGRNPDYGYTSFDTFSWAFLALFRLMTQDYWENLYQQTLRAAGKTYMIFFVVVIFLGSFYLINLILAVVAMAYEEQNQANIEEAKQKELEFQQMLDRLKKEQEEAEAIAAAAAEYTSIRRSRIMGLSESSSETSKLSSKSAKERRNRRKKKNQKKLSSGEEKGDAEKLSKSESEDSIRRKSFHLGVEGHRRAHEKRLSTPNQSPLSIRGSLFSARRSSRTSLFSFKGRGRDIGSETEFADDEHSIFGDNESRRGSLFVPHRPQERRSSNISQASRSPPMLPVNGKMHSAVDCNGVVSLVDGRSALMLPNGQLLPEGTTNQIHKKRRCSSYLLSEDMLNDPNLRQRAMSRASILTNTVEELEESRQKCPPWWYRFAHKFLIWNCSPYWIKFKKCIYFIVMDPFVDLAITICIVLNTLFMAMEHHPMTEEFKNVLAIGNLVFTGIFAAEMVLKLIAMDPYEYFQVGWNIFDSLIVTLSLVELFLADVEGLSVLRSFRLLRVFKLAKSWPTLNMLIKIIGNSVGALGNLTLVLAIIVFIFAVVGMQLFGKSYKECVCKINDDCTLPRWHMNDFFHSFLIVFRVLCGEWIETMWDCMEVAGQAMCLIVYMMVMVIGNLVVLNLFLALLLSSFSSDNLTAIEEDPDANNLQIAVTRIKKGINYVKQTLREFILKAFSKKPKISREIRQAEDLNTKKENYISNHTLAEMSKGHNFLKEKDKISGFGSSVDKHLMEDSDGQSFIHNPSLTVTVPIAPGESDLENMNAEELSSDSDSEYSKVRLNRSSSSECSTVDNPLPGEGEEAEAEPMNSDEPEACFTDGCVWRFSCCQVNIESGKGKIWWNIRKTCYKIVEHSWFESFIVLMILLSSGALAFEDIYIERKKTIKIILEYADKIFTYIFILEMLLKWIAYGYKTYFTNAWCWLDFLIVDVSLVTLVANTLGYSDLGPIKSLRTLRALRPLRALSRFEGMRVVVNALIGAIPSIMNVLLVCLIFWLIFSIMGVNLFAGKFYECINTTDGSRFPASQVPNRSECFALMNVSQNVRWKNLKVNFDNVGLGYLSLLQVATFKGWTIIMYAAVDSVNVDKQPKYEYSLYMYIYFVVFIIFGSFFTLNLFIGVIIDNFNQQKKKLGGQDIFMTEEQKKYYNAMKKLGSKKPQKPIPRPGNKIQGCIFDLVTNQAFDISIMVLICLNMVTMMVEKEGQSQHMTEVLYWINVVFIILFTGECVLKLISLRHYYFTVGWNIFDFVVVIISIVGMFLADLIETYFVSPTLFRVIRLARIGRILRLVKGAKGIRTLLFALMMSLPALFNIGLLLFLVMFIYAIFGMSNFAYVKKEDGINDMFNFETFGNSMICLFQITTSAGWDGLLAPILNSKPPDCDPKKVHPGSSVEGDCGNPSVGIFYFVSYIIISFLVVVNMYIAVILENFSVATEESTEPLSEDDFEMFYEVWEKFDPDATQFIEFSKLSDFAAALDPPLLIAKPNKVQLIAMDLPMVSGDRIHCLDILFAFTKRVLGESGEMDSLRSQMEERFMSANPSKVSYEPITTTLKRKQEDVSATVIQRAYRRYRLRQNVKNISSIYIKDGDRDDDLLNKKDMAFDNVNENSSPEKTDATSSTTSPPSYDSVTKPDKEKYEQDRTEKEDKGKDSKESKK
Test: Electrophysiology (EP) assay, whole-cell patch clamp
Format: cell-based
Details: resting block dissociation constant; hNav1.7 HEK-293 cells; read-out: Nav1.7 Activity (μM) EP assay Kr
Criterion: Kd strictly less than 1 µM. Met: t. Not met: f.

Worked examples, 5 compounds total:
Asked: I wonder whether CC(=O)N[C@@H](Cc1c[nH]cn1)C(=O)Nc1cccc(-c2ccc(Oc3ccc(F)cc3)cc2)n1 [Compound 32] has Kd below 1 µM. Can you tell?
Given back: t

Asked: I wonder whether CC(C)C[C@H](NC(=O)c1ccccn1)C(=O)Nc1cccc(-c2ccc(Oc3ccc(F)cc3)cc2)n1 [Compound 7] has Kd below 1 µM. Can you tell?
Given back: f

Asked: I wonder whether CC(C)C[C@H](NC(N)=O)C(=O)Nc1cccc(-c2ccc(Oc3ccc(F)cc3)cc2)n1 [Compound 12] has Kd below 1 µM. Can you tell?
Given back: f

Asked: I wonder whether CS(=O)(=O)N[C@@H](Cc1c[nH]cn1)C(=O)Nc1cccc(-c2ccc(Oc3ccc(F)cc3)cc2)n1 [Compound 38] has Kd below 1 µM. Can you tell?
Given back: f

Asked: I wonder whether O=C(CO)N[C@@H](CO)C(=O)Nc1cccc(-c2ccc(Oc3ccc(F)cc3)cc2)n1 [Compound 60] has Kd below 1 µM. Can you tell?
Given back: f

Could you now consider this next compound?
Asked: I wonder whether N[C@@H](CO)C(=O)Nc1cccc(-c2ccc(Oc3ccc(F)cc3)cc2)n1 [Compound 70] has Kd below 1 µM. Can you tell?
Given back: t

* * *

Biological target: human Nav1.7 (Homo sapiens (Human), UniProt Q15858)
Sequence (Q15858 with tags, fused parts or gaps limits assumed): as the sequence (Q15858 other isoform, or with tags, fused parts or gaps) above
Assay: FLIPR or FLIPR TETRA sodium dye assay with KCl and test article pre-incubation
Assay type: cell-based
Details: recombinant Nav1.7/HEK293 cells; CoroNa Green sodium dye; veratridine + scorpion venom agonists; ± SEM
Assignment: determine reported IC50 for the given compounds.

Record excerpt, results attached:
Asked: Supply IC50 measured with human Nav1.7 (Homo sapiens (Human), UniProt Q15858) for CC(C)C[C@H](NC(=O)NC(C)(C)C)C(=O)Nc1cccc(-c2ccc(Oc3ccc(F)cc3)cc2)n1 [Compound 13] .
Given back: 0.075 µM

Asked: Supply IC50 measured with human Nav1.7 (Homo sapiens (Human), UniProt Q15858) for Cn1cnc2ccc(C(=O)Nc3cccc(-c4ccc(Oc5ccc(F)cc5)cc4)n3)cc21 [Compound 98] .
Given back: > 20 µM

Next:
Asked: Supply IC50 measured with human Nav1.7 (Homo sapiens (Human), UniProt Q15858) for Nc1nc(O)cc(C(=O)Nc2cccc(-c3ccc(Oc4ccc(F)cc4)cc3)n2)n1 [Compound 65] .
Given back: > 20 µM

* * *

Target: human Nav1.7 (Homo sapiens (Human), UniProt Q15858)
Experiment: FLIPR or FLIPR TETRA sodium dye assay with KCl and test article pre-incubation
Assay type: cell-based
Details: read-out: Nav1.7 Activity (μM) FLIPR assay IC50 (μM) ± SEM
QUANTITY: log10 of IC50 (log10 of the value in µM)
All values: base-10 log of IC50 in µM.

Record excerpt, results attached:
Asked: Look up and report measured log10 of IC50 for this entry: CC(C)C[C@H](NC(=O)c1cccnc1)C(=O)Nc1cccc(-c2ccc(Oc3ccc(F)cc3)cc2)n1 [Compound 10]
Given back: -1.04

Asked: Look up and report measured log10 of IC50 for this entry: O=C(N[C@@H](CO)C(=O)Nc1cccc(-c2ccc(Oc3ccc(F)cc3)cc2)n1)c1ccncc1 [Compound 57]
Given back: -0.80

Go through the list and state log10 of IC50 for each entry.
1. CC(C)(C)OC(=O)N[C@@H](CC(=O)Nc1cccc(-c2ccc(Oc3ccc(F)cc3)cc2)n1)C(N)=O [Compound 40]
2. Cn1cnc(S(=O)(=O)Nc2cccc(-c3ccc(Oc4ccc(F)cc4)cc3)n2)c1 [Compound 29]
3. NS(=O)(=O)Nc1cc(Cl)cc(-c2ccc(Oc3ccc(F)cc3)cc2)n1 [Compound 18]
4. CC(C)C[C@H](NC(=O)C1CC1)C(=O)Nc1cc([C@H](O)CO)cc(-c2ccc(Oc3ccc(F)cc3)cc2)n1 [Compound 44]
5. CC(C)(C)OC(=O)N[C@@H](CC(N)=O)C(=O)Nc1cccc(-c2ccc(Oc3ccc(F)cc3)cc2)n1 [Compound 41]

Given back:
1: -0.89; 2: -0.49; 3: 0.18; 4: -1.23; 5: -1.18

Values from patent US9656959B2
